- tested_on: human GcgR (Homo sapiens)
- Sequence (P47871 26-477): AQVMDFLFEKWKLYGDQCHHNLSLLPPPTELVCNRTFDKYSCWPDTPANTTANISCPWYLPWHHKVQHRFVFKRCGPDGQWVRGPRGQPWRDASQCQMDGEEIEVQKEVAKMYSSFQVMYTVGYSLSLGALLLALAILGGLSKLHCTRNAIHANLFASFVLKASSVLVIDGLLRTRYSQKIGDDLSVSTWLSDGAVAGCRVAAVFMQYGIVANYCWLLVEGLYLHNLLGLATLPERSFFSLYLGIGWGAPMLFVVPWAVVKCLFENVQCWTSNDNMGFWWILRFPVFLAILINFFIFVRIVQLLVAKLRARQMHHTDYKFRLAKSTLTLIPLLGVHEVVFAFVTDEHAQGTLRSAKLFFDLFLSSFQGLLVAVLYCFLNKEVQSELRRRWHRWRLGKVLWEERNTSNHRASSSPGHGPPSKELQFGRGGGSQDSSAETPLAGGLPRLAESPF
- test_details: Functional cAMP activity in the presence of 1% HSA
- Type: cell-based
pEC50: −log10 of the molar value. Starred links: 1 amine or outer side, 2 acyl side, 3 side chain; linkers in the order of their positions; H or OH if unused. Non-standard residues stand in square brackets, D forms with d. Groups on a side chain read outwards from the residue. No end group written: not given here. *: point of attachment. C20 diacid = O=C(O)CCCCCCCCCCCCCCCCCCC(=O)*; C18 diacid = O=C(O)CCCCCCCCCCCCCCCCC(=O)*; γGlu = O=C(O)[C@H](CCC(=O)[*:2])N[*:1]; αMe4Pal = C[C@](N)(Cc1ccncc1)C(=O)O; αMeY = C[C@](N)(Cc1ccc(O)cc1)C(=O)O; 4Pal = N[C@@H](Cc1ccncc1)C(=O)O; αMeL = CC(C)C[C@](C)(N)C(=O)O; Orn = NCCC[C@H](N)C(=O)O; AEEA = NCCOCCOCC(=O)O; Aib = CC(C)(N)C(=O)O
Quick reference for pEC50 among some substances

substance | pEC50
H-Y[Aib]QGTFTSDFSQ[αMeL]LDKK([AEEA-γGlu-C18 diacid])AQ[αMe4Pal]AFIEYLIE[Aib]GESSGAPPPSGE-NH2 [Example 233] | 6.34
H-Y[Aib]QGTFTSDFSR[αMeL]LDKK([AEEA-AEEA-γGlu-C18 diacid])AQ[Aib]AFIEYLLE[Aib]GPSSGAPPPSGS-NH2 [Example 80] | 5.92
H-Y[Aib]QGTFTSDYSI[αMeL]LDKQAAK([AEEA-AEEA-γGlu-C20 diacid])QFIEWLIEGGPSSGEPPPGAE-NH2 [Example 319] | 5.78
H-Y[Aib]QGTFTSD[4Pal]S[Orn][αMeL]LD[Orn]K([γGlu-γGlu-C18 diacid])AQ[αMe4Pal]QFIE[αMeY]LLEGGPSSGAPPPSGSEE-NH2 [Example 975] | 6.43
Y[Aib]QGTFTSDFSQ[αMeL]LDKK([AEEA-γGlu-C18 diacid])AQ[αMe4Pal]AFIEYLIE[Aib]GESSGAPPPSGS-NH2 [Example 232] | 6.32
H-Y[Aib]QGTFTSDFSR[αMeL]LDKK([AEEA-γGlu-C18 diacid])AQ[αMe4Pal]AFIEYLIE[Aib]GESSGAPPPSGE-NH2 [Example 231] | 6.35
H-Y[Aib]QGTFTSDFSR[αMeL]LDKK([AEEA-γGlu-C18 diacid])AQ[Aib]AFIEYLLE[Aib]GPSSGAPPPSGS-NH2 [Example 79] | 6.04
H-Y[Aib]QGTFTSDFSR[αMeL]LDKK([AEEA-γGlu-C20 diacid])AQ[Aib]AFIEYLLE[Aib]GPSSGAPPPGGS-NH2 [Example 42] | 5.82
H-Y[Aib]QGTFTSDFS[Orn][αMeL]LDKK([AEEA-AEEA-γGlu-C20 diacid])AQ[Aib]AFIEYLLE[Aib]GPSSGAPPPGEG-NH2 [Example 70] | 6.14

* * *

- tested_on: hGLP-1R (Homo sapiens, UniProt P43220)
- Sequence (P43220 24-463): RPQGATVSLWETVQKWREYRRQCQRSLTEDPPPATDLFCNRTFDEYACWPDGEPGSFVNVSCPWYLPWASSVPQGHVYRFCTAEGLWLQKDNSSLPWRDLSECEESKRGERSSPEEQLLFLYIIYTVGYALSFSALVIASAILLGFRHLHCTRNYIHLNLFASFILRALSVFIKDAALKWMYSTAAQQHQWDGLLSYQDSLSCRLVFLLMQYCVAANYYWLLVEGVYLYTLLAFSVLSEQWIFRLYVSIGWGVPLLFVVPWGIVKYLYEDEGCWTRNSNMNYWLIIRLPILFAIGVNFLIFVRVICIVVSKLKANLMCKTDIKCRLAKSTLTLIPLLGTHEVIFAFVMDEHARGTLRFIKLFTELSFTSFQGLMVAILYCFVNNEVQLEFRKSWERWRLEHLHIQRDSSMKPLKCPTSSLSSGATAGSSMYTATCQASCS
- test_details: Functional cAMP activity in the presence of 1% HSA
- Assay type: cell-based
- setup_conditions: read-out: cAMP Rel EC50, hGLP-1R
pEC50: −log10 of the molar value. Starred links: 1 amine or outer side, 2 acyl side, 3 side chain; linkers in the order of their positions; H or OH if unused. Non-standard residues stand in square brackets, D forms with d. Groups on a side chain read outwards from the residue. *: point of attachment. C20 diacid = O=C(O)CCCCCCCCCCCCCCCCCCC(=O)*; C18 diacid = O=C(O)CCCCCCCCCCCCCCCCC(=O)*; γGlu = O=C(O)[C@H](CCC(=O)[*:2])N[*:1]; αMe4Pal = C[C@](N)(Cc1ccncc1)C(=O)O; αMeY = C[C@](N)(Cc1ccc(O)cc1)C(=O)O; 4Pal = N[C@@H](Cc1ccncc1)C(=O)O; αMeL = CC(C)C[C@](C)(N)C(=O)O; Orn = NCCC[C@H](N)C(=O)O; AEEA = NCCOCCOCC(=O)O; Aib = CC(C)(N)C(=O)O
Quick reference for pEC50 among some substances

substance | tested_on | pEC50
H-Y[Aib]QGTFTSD[4Pal]SQ[αMeL]LDKK([AEEA-γGlu-C18 diacid])AQ[αMe4Pal]QFIE[αMeY]LIEGGPSSGAPPPSGS-NH2 [Example 855] | hGLP-1R (Homo sapiens, UniProt P43220) | 6.68
H-Y[Aib]QGTFTSD[4Pal]SQ[αMeL]LD[Orn]K([AEEA-γGlu-C18 diacid])AQ[αMe4Pal]AFIE[αMeY]LIEGGPSSGAPPPSGS-NH2 [Example 849] | hGLP-1R (Homo sapiens, UniProt P43220) | 6.95
H-Y[Aib]QGTFTSD[4Pal]SQ[αMeL]LDKK([AEEA-γGlu-C18 diacid])AQ[αMe4Pal]AFIEYLIE[Aib]GPSSGAPPPSGE-NH2 [Example 881] | hGLP-1R (Homo sapiens, UniProt P43220) | 6.49
H-Y[Aib]QGTFTSD[4Pal]SQ[αMeL]LDKK([AEEA-γGlu-C18 diacid])AQ[αMe4Pal]AFIE[αMeY]LIEGGPSSGAPPPSGS-NH2 [Example 844] | hGLP-1R (Homo sapiens, UniProt P43220) | 6.82
H-Y[Aib]QGTFTSDFSK[αMeL]LDKK([AEEA-γGlu-C20 diacid])AQ[Aib]AFIEYLLAGGPSSGEPPPSEE-NH2 [Example 4] | hGLP-1R (Homo sapiens, UniProt P43220) | 6.06
H-Y[Aib]QGTFTSDFSK[αMeL]LDKK([AEEA-γGlu-C18 diacid])AQ[Aib]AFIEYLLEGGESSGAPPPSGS-NH2 [Example 146] | hGLP-1R (Homo sapiens, UniProt P43220) | 6.17
H-Y[Aib]QGTFTSDFS[Orn][αMeL]LDKK([AEEA-AEEA-γGlu-C20 diacid])AQ[Aib]AFIEYLLE[Aib]GPSSGAPPPSEG-NH2 [Example 71] | hGLP-1R (Homo sapiens, UniProt P43220) | 6.00

Provenance of the data: patent US20240270821A1
